List of IC50 tested on Tyro-3 (h) (Homo sapiens).
Sequence (Q06418 41-890): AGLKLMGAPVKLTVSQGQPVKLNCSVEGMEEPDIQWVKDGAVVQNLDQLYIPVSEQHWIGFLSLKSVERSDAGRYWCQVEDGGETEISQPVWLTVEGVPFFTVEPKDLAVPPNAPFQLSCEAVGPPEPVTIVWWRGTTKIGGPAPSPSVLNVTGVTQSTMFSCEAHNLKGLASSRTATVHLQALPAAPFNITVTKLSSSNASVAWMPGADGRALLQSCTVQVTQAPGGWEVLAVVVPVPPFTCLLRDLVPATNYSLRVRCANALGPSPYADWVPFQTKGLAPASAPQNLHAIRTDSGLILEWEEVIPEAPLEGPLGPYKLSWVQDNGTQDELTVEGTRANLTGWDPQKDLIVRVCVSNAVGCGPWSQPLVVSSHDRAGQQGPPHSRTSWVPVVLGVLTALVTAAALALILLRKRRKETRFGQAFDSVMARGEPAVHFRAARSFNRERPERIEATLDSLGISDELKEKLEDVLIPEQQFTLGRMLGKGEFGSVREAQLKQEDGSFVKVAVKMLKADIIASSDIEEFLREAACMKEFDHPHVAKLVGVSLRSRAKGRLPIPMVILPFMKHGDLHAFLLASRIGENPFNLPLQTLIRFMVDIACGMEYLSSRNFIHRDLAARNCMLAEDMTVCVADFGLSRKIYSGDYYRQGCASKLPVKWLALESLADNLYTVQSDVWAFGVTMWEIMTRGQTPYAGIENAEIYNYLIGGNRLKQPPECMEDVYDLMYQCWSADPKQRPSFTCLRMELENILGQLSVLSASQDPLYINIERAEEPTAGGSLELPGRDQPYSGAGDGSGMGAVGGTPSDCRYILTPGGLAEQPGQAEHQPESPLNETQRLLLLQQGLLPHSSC
Just the number plus its unit, please.

{"LINE_NOTATION": "C=CCn1cc(-c2ccc(F)cc2)c(=O)c(C(=O)Nc2ccc(Oc3ccnc(N)c3Cl)nc2)n1", "IC50": "28 nM"}
{"LINE_NOTATION": "C=CCn1cc(-c2ccc(F)cc2)c(=O)c(C(=O)Nc2ccc(Oc3ccnc(N)c3Cl)cn2)n1", "IC50": "24 nM"}
{"LINE_NOTATION": "Nc1nccc(Oc2ccc(NC(=O)c3nn(C4CC4)cc(-c4ccc(F)cc4)c3=O)nc2)c1Cl", "IC50": "31 nM"}
{"LINE_NOTATION": "CC(C)n1cc(-c2ccc(F)cc2)c(=O)c(C(=O)Nc2ccc(Oc3ccnc(N)c3Cl)cn2)n1", "IC50": "54 nM"}
{"LINE_NOTATION": "Nc1nccc(Oc2cnc(NC(=O)c3nn(C4CC4)cc(-c4ccc(F)cc4)c3=O)nc2)c1Cl", "IC50": "49 nM"}

Missing value: IC50, Tyro-3 (h) (Homo sapiens), entry Nc1nccc(Oc2ccc(NC(=O)c3nn(C4CC4)cc(-c4ccc(F)cc4)c3=O)cn2)c1Cl . Fill in? 73 nM

Lab note: need IC50 with Tyro-3 (h) (Homo sapiens) for entry Cn1cc(-c2ccc(F)cc2)c(=O)c(C(=O)Nc2ccc(Oc3ccnc(N)c3Cl)cn2)n1 , please look it up. 23 nM

Form entry - test system: Tyro-3 (h) (Homo sapiens); read-out: IC50; compound: CC(C)n1cc(-c2ccc(F)cc2)c(=O)c(C(=O)Nc2ccc(Oc3ccnc(N)c3Cl)nc2)n1 39 nM

What IC50 appears in the records for this compound with Tyro-3 (h) (Homo sapiens)? C=CCn1cc(-c2ccc(F)cc2)c(=O)c(C(=O)Nc2ncc(Oc3ccnc(N)c3Cl)cn2)n1 22 nM

Form field: IC50 recorded for CC(C)n1cc(-c2ccc(F)cc2)c(=O)c(C(=O)Nc2ncc(Oc3ccnc(N)c3Cl)cn2)n1 with Tyro-3 (h) (Homo sapiens) (enter value) 23 nM
